- Read-out: Urokinase-type plasminogen activator receptor (uPAR), PLAUR (gene 5329)
- procedureText: BSK_4H_uPAR: BioMAP Diversity Plus: 4H Assay for Urokinase-type plasminogen activator receptor (uPAR) Biomarker Activity (AID 2283030)
- runParameters: primary human endothelial cells (HUVEC); actives raise or lower the signal
The source made the active and inactive calls. Rule for the calls: active = hit-call score of the fitted dose curve at least 0.9, where 1 is the maximum; inactive = score below 0.9.
The categories you may choose from are t (active), f (inactive)

Before answering, review these 3 worked examples.
{"columns": ["compound", "assignedLabel"],
 "data": [
  ["C1CN(CCOCCN2CCOCC2)CCO1", "f"],
  ["COc1ccccc1Oc1c(NS(=O)(=O)c2ccc(C(C)(C)C)cc2)nc(-c2ncccn2)nc1OCCO", "f"],
  ["CN(C)CCC(c1ccc(Cl)cc1)c1ccccn1 (stereo not given)", "f"]
]}

Task: Record request — test call for CCC[Si](OC(C)=O)(OC(C)=O)OC(C)=O
Result: f

Task: Record request — test call for CCCCCCC(O)CCCCCCCCCCC(=O)OC (stereo not given)
Result: f

Task: Record request — test call for Cc1cccnc1
Result: f

Task: Record request — test call for CN(C)Cc1cc(C(C)(C)C)c(O)c(C(C)(C)C)c1
Result: f

Task: Record request — test call for Cc1c(C(N)=O)cc([N+](=O)[O-])cc1[N+](=O)[O-]
Result: f

Task: Record request — test call for O=C(C(=O)c1ccccc1)c1ccccc1
Result: f

Task: Record request — test call for CC(C)CC(=O)CC(C)CC(C)C (stereo not given)
Result: t

###

- Read-out: Macrophage colony-stimulating factor (MCSF), CSF1 (gene 1435)
- procedureText: BSK_LPS_MCSF: BioMAP Diversity Plus: LPS Assay for Macrophage colony-stimulating factor (MCSF) Biomarker Activity (AID 2283083)
- runParameters: primary human HUVEC with PBMC; actives raise or lower the signal
- Experimental: BSK_LPS is a cell-based, multiplexed-readout assay that uses umbilical vein endothelium and peripheral blood mononuclear cells, a human vascular primary cell co-culture, with measurements taken at 24 hours after chemical dosing in a 96-well plate.BSK_LPS_MCSF is an assay component measured in the BSK_LPS assay. It measures M-CSF antibody related to regulation of gene expression using ELISA technology.Data from the assay component BSK_LPS_MCSF was analyzed into 1 assay endpoint. […]
Activity calls are given as the source filed them. How the source made its calls: active means hit-call score of the fitted dose curve at least 0.9, where 1 is the maximum; inactive means score below 0.9.
The categories you may choose from are true (active), false (inactive)

{"columns": ["molecule", "assignedLabel"],
 "data": [
  ["Sc1nc2ccccc2s1", "false"]
]}

Task: Record request — test call for COc1cc(CNC(=O)CCCC/C=C/C(C)C)ccc1O
Result: false

Task: Record request — test call for COC(=O)/C=C\C(=O)OC
Result: false

Task: Record request — test call for COc1ccc(C(=O)c2ccccc2O)c(O)c1
Result: false

Task: Record request — test call for CCCCCCC(O)CCCCCCCCCCC(=O)OC (stereo not drawn)
Result: false

Task: Record request — test call for CN(C)c1ccc(C(c2ccccc2)c2ccc(N(C)C)cc2)cc1
Result: true

###

- procedureText: TOX21_p53_BLA_p3_viability: Viability Assessment in the Tox21 HCT-116 p53 Agonism Beta-lactamase Assay, Phase 3 (AID 2283593);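 note: cells exposed to compound for 16 h before reading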
Records with an inconclusive call do not appear. Activity calls are given as the source filed them. How the source made its calls: active means hit-call score of the fitted dose curve at least 0.9, where 1 is the maximum; inconclusive means response in the unintended direction; inactive means score below 0.9.
The categories you may choose from are 1 (yes) (active), 0 (no) (inactive)

Task: Record request — test call for COc1cc(C(=O)OC(COCCC(C)C)CN2CCOCC2)cc(OC)c1OC (stereo not given)
Result: 0 (no)

Task: Record request — test call for O=S(O)CO
Result: 0 (no)

Task: Record request — test call for O=C1CCc2ccc(OCCCCN3CCN(c4cccc(Cl)c4Cl)CC3)cc2N1
Result: 1 (yes)

Task: Record request — test call for C=CCOC(=O)C(=C)C
Result: 0 (no)

Task: Record request — test call for CCCCCCCC/C=C\CCCCCCCC(=O)NCc1ccc(O)c(OC)c1
Result: 1 (yes)

Task: Record request — test call for O=C(O)CCc1nc2ccccc2[nH]1
Result: 0 (no)

Task: Record request — test call for COc1ccccc1OC(=O)Oc1ccccc1OC
Result: 0 (no)

###

- procedureText: BSK_hDFCGF_Proliferation: Cell Proliferation Assessment in the BioMAP Diversity Plus: hDFCGF Assay (AID 2283059);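 note: curves fitted for both rise and fall of signal versus DMSO baseline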
- runParameters: primary human foreskin fibroblasts
- Protocol: BSK_hDFCGF is a cell-based, multiplexed-readout assay that uses foreskin fibroblast, a human skin primary cell, with measurements taken at 24 hours after chemical dosing in a 96-well plate.BSK_hDFCGF_Proliferation is an assay component measured in the BSK_hDFCGF assay. It measures […] related to cell proliferation using Sulforhodamine staining technology.Data from the assay component BSK_hDFCGF_Proliferation was analyzed into 1 assay endpoint. […]
Active and inactive are the calls of the source. The calls were made as follows: active = hit-call score of the fitted dose curve at least 0.9, where 1 is the maximum; inactive = score below 0.9.
The categories you may choose from are 1 (active), -1 (inactive)

Before answering, review these 5 worked examples.
{"columns": ["compound", "assignedLabel"],
 "data": [
  ["CCC(C)=NO", -1],
  ["CCCCCCCCCCCCCCCCCC[N+](C)(C)C", 1],
  ["COC(=O)/C=C\\C(=O)OC", -1],
  ["CN(C)c1ccc(C(c2ccccc2)c2ccc(N(C)C)cc2)cc1", 1],
  ["CCCCCCCCCCC1CO1 (stereo unspecified)", 1]
]}

Task: Record request — test call for CC(C)C1OCCN1CCOC(=O)NCCCCCCNC(=O)OCCN1CCOC1C(C)C (stereo unspecified)
Result: -1

Task: Record request — test call for Cc1cc(-n2nc3ccc(Cl)cc3n2)c(O)c(C(C)(C)C)c1
Result: -1

Task: Record request — test call for C1CN(CCOCCN2CCOCC2)CCO1
Result: -1

Task: Record request — test call for Cc1c(C(N)=O)cc([N+](=O)[O-])cc1[N+](=O)[O-]
Result: -1

Task: Record request — test call for CC(C)CC(=O)CC(C)CC(C)C (stereo unspecified)
Result: 1

Task: Record request — test call for CCCCCCCCCC/C=C/C1CC(=O)OC1=O (stereo unspecified)
Result: -1

###

- procedureText: TOX21_p53_BLA_p3_viability: Viability Assessment in the Tox21 HCT-116 p53 Agonism Beta-lactamase Assay, Phase 3 (AID 2283593);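 note: cells exposed to compound for 16 h before reading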
Records with an inconclusive call do not appear. Calls of active or inactive are those of the source. How the source made its calls: active means hit-call score of the fitted dose curve at least 0.9, where 1 is the maximum; inconclusive means response in the unintended direction; inactive means score below 0.9.
The categories you may choose from are y for active, n for inactive

{"columns": ["molecule", "assignedLabel"],
 "data": [
  ["CC(C)NCC1CCc2cc(CO)c([N+](=O)[O-])cc2N1 (stereo unspecified)", "n"],
  ["Cc1ccc2c(Cl)cc(Cl)c(O)c2n1", "y"],
  ["CCOC(=O)C1=C(C)NC(C)=C(C(=O)OCC)C1c1ccccc1/C=C/C(=O)OC(C)(C)C", "y"],
  ["CCN(CC)CCOc1ccc(-c2nc3cc(Cl)ccc3s2)cc1", "n"],
  ["OCCN1CCN(CCCN2c3ccccc3C=Cc3ccccc32)CC1", "n"],
  ["C=CCOCC(CC)(CO)COCC=C", "n"]
]}

Task: Record request — test call for C=CN1CCCCCC1=O
Result: n

Task: Record request — test call for Cc1c(C(=O)O)cccc1[N+](=O)[O-]
Result: n

Task: Record request — test call for NC(N)=NCc1cccc(I)c1
Result: n

Task: Record request — test call for Oc1ccccc1C=NCc1ccccc1
Result: n

Task: Record request — test call for CC1CCCNC1 (stereo unspecified)
Result: n

Task: Record request — test call for Brc1ccccc1-c1ccccc1
Result: n

Task: Record request — test call for CCCCCSCCCCC
Result: n

Task: Record request — test call for [Cl-].[Cl-].[NH2-].[NH2-].[Pt+4]
Result: n

Task: Record request — test call for NCc1ccccc1
Result: n

Task: Record request — test call for c1cc(CN2CCCCC2)cc(OCCCNc2nc3ccccc3s2)c1
Result: n

Task: Record request — test call for Cc1ccc(S(=O)(=O)NC(=O)NC2CCCCCCC2)cc1
Result: n

Task: Record request — test call for Cc1[nH]cnc1CN1CCc2c(c3ccccc3n2C)C1=O
Result: n

Task: Record request — test call for COc1cc(N)c(Cl)cc1C(=O)NC1CCN(Cc2ccccc2)CC1
Result: n

Task: Record request — test call for COc1cc([C@@H]2c3cc4c(cc3C(O[C@@H]3O[C@@H]5COC(c6cccs6)O[C@H]5[C@H](O)[C@H]3O)C3COC(=O)[C@@H]32)OCO4)cc(OC)c1O (stereo partly specified)
Result: n

Task: Record request — test call for C(=C/c1ccccc1)/c1ccccc1
Result: n

###

- Read-out: Interleukin 17A (IL17A), IL17A (gene 3605)
- procedureText: BSK_BT_xIL17A: BioMAP Diversity Plus: BT Assay for Interleukin 17A (IL17A) Biomarker Activity (AID 2284229)
- runParameters: primary human B cells with PBMC
The source made the active and inactive calls. How the source made its calls: active means hit-call score of the fitted dose curve at least 0.9, where 1 is the maximum; inactive means score below 0.9.
The categories you may choose from are true = active, false = inactive

Before answering, review these 5 worked examples.
{"columns": ["compound", "assignedLabel"],
 "data": [
  ["Cc1cccnc1", "false"],
  ["CCCCCCC(O)CCCCCCCCCCC(=O)OC (centres undefined)", "false"],
  ["Cc1cc(-n2nc3ccc(Cl)cc3n2)c(O)c(C(C)(C)C)c1", "false"],
  ["CC[N+](CC)(CC(=O)Nc1c(C)cccc1C)Cc1ccccc1", "false"],
  ["COC(=O)/C=C\\C(=O)OC", "false"]
]}

Would you kindly look at the next entry?
Task: Record request — test call for CN(C)c1ccc(C(c2ccccc2)c2ccc(N(C)C)cc2)cc1
Result: true
